Target: human erythrocyte AChE (hAChE) (Homo sapiens)
Construct: The human erythrocyte AChE (hAChE, aqueous buffer solution); purchased Sigma Aldrich; host or cells: human erythrocytes (natural source)
Sequence (P22303 32-617 isoform P22303-2 limits assumed): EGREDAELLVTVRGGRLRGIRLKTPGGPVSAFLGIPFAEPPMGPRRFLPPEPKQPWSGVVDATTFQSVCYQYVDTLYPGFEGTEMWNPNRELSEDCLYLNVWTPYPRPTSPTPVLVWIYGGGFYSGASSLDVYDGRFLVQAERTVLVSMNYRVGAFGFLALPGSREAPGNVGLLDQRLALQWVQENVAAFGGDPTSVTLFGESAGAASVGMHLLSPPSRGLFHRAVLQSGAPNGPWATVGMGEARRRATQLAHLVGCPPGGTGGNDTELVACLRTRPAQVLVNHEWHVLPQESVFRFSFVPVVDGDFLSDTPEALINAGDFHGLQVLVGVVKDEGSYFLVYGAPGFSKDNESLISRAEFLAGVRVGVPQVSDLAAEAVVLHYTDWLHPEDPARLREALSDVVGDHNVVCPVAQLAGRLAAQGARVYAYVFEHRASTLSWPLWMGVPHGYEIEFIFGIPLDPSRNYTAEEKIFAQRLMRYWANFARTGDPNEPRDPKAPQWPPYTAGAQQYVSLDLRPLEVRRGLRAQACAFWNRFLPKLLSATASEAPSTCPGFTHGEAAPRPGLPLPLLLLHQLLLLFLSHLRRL
Assay: biochemical
Type: biochemical
Recorded IC50, one value per entry.
Assay Metric: IC50 (µM)

                                   compound                          target_or_system  recorded_result
0  O=P(Oc1ccccc1)(Oc1ccccc1)Oc1ccccc1 [Compound I1, tri phenyl phosphate]  human erythrocyte AChE (hAChE) (Homo sapiens)             33.1
1  CC(C)CCCCCCCOP(=O)(Oc1ccccc1)Oc1ccccc1 [Compound 1, isodecyl diphenylphosphate]  human erythrocyte AChE (hAChE) (Homo sapiens)             38.4
2  CCCCOC(=O)CC(SP(=S)(OCC(CC)CCCC)OCC(CC)CCCC)C(=O)OCCCC (stereo not drawn)  human erythrocyte AChE (hAChE) (Homo sapiens)             33.1

====

Recorded Risk level, one value per entry.
Conditions: sum of five 0/1 risk factors, 0 (lack of risk) to 5 (very high multiple risk)
Assay Metric: Risk level

>>> df
                                   molecule  recorded_result
0  O=P(Oc1c(F)cccc1F)(Oc1c(F)cccc1F)Oc1c(F)cccc1F [Compound F, Tri(2,6-difluorophenyl)phosphate]               ≥3
1  Cc1ccc(OP(=O)(Oc2ccc(C)cc2)Oc2ccc(C)cc2)cc1 [Compound D, Tri(para-cresyl)phosphate]                3
2  CCCCC(CC)COP(=O)(Oc1ccccc1)Oc1ccccc1 (stereo not shown) [Compound A, 2-ethylhexyl diphenylphosphate]                4
3  NP(=O)(Oc1ccccc1)Oc1ccccc1 [Compound K, Diphenyl phosphoroamidate]                4

====

Biological target: BuChE from equine serum (eqBuChE) (Equus caballus)
Construct: The BuChE freeze-dried from equine serum (eqBuChE, Sigma Aldrich); purchased Sigma Aldrich; host or cells: equine serum (natural source)
Sequence (P81908 whole entry): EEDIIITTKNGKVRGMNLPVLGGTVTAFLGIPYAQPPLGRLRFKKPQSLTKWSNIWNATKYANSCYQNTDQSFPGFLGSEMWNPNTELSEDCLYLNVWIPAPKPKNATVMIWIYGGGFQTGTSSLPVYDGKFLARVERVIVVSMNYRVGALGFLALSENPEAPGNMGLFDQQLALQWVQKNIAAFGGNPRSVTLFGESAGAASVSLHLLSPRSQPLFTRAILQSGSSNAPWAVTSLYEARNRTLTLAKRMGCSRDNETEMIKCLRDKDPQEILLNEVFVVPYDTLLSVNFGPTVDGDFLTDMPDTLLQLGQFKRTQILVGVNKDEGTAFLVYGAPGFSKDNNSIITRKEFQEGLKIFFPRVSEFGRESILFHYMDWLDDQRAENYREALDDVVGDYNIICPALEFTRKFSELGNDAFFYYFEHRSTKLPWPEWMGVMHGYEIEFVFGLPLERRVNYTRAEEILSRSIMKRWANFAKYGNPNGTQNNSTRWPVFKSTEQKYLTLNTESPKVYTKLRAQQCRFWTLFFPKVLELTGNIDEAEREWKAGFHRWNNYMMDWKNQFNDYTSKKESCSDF
Assay: biochemical
Type: biochemical
Assay Metric: IC50

                                   molecule  recorded_result
0  O=P(Oc1ccccc1)(Oc1ccccc1)Oc1ccccc1 [Compound I1, tri phenyl phosphate]          42.9 µM
1  CC(C)CCCCCCCOP(=O)(Oc1ccccc1)Oc1ccccc1 [Compound 1, isodecyl diphenylphosphate]            93 µM
2  CCCCOC(=O)CC(SP(=S)(OCC(CC)CCCC)OCC(CC)CCCC)C(=O)OCCCC (stereo not drawn)            19 µM
